# reported pIC50; entries follow
system: interleukin-1β production; experiment: Inhibitory activity against interleukin-1β production (LPS-stimulated HL-60 cells, ELISA); format: cell-based; settings: Table 1, lipopolysaccharide 10 μg/mL, culturing for 3 days, read-out: IL-1β production inhibiting activity IC50
Structures can show the parent of a compound that is named as a salt.
Convention used: pIC50 is expressed as -log10 of the molar concentration.

Example entries begin here.
| molecule | assay.readout | observed.value |
| --- | --- | --- |
| CC(C)Cn1nc(-c2ccc(F)c(F)c2)cc(CN(CCO)CCO)c1=O.Cl [Example 108, hydrochloride] | pIC50 | 5.46 |
| Cc1ccc(-c2cc(CN(CCO)CCO)c(=O)n(CC(C)C)n2)cc1 [Example 49, hydrochloride] | pIC50 | 5.45 |

Q: // Input: COc1ccc(-c2cc(CN(CCO)CCO)c(=O)n(CC3CC3)n2)cc1F.Cl [Example 23, hydrochloride] . Output its pIC50 only.
A: 6.48

====

Solubility (%): recorded values
test: Water solubility test; type: physicochemical; conditions: purified water, from amount of water required for dissolution
Quick reminder: number only, in %, skip the unit.

| structure.smiles.string | observed.value |
| --- | --- |
| COc1ccc(-c2cc(CN)c(=O)n(Cc3ccc(Cl)cc3)n2)cc1F.Cl | 0.06 |
| Cc1cc(-c2cc(CN3CCN(C)CC3)c(=O)n(CC=Cc3ccc(Cl)cc3)n2)ccc1F.Cl.Cl | 10 |
| Cc1cc(-c2cc(CN3CCN(C)CC3)c(=O)n(CCCc3ccc(Cl)cc3)n2)ccc1F.Cl.Cl | 10 |
| COc1ccc(-c2cc(CN3CCN(C)CC3)c(=O)n(Cc3ccc(F)c(F)c3)n2)cc1F.Cl.Cl | 10 |

Proceeding to the next molecule to report its Solubility (%).
Q: Specify Solubility (%) for CSc1ccc(-c2cc(CN(C)C)c(=O)n(CC3CC3)n2)cc1.Cl and stop.
A: 0.5

====

assay.readout: melting point

Here's what some known entries look like.
| compound | observed.value |
| --- | --- |
| COc1ccc(-c2cc(CN3CCN(C)CC3)c(=O)n(CC(C)C)n2)cc1Cl.Cl.Cl | 235.8 to 236.7 °C |
| Cc1cc(-c2cc(CN3CCN(C)CC3)c(=O)n(Cc3ccccc3Cl)n2)ccc1F | 149.7 to 150.9 °C |

Q: Provide measured melting point value, entry: CC(C)Cn1nc(-c2ccccc2)cc(CN(C)C)c1=O.Cl
A: 221.7 to 222.3 °C

Q: Fill in melting point for record Cc1cc(-c2cc(CN3CCN(C)CC3)c(=O)n(Cc3ccccc3Cl)n2)ccc1F.Cl.Cl
A: 191 to 202 °C (dec.)

====

test: Water solubility test; assay type: physicochemical; conditions: purified water, from amount of water required for dissolution
Solubility (%) values, listed per item
Report the value in % with no unit label.

The cases that follow already have their Solubility (%) on record.
| structure.smiles.string | unit.descriptor | Solubility (%) |
| --- | --- | --- |
| COc1ccc(-c2cc(CN3CCN(Cc4ccccc4)CC3)c(=O)n(CC3CC3)n2)cc1F.Cl.Cl | % | 1 |
| COc1ccc(-c2cc(CN3CCN(CCO)CC3)c(=O)n(CC=Cc3ccc(Cl)cc3)n2)cc1F.Cl.Cl | % | 0.03 |

Q: Give me measured Solubility (%), please, for this compound: COc1ccc(-c2cc(CN(CCO)CCO)c(=O)n(CC3CC3)n2)cc1F.Cl
A: 10

Q: Identify the reported Solubility (%) for the following entry. COc1ccc(-c2cc(CCCN3CCNCC3)c(=O)n(CC3CC3)n2)cc1F.Cl.Cl
A: 10

Q: Give the reported Solubility (%) for this compound. COc1ccc(-c2cc(CN3CCN(C)CC3)c(=O)n(CC=Cc3ccc(Cl)cc3)n2)cc1F.Cl.Cl
A: 0.06

====

test: Water solubility test; type: physicochemical; settings: purified water, from amount of water required for dissolution
// values below are reported Solubility (%)

Some molecules with recorded Solubility (%):
| molecule | Solubility (%) |
| --- | --- |
| CC(C)Cn1nc(-c2ccc(F)c(F)c2)cc(CN(CCO)CCO)c1=O.Cl | >20% |
| CNC(=O)c1cc(-c2ccc(OC)cc2)nn(CC(C)C)c1=O [compound 2, reference compound] | <0.001% |

Consider the additional molecule presented here.
Q: Tell me measured Solubility (%) for CCN(CC)Cc1cc(-c2ccc(C)cc2)nn(CC(C)C)c1=O.Cl please.
A: >20%

====

Form field: melting point (one value per entry).

Q: Consider the compound COc1ccc(-c2cc(CCCN3CCN(C)CC3)c(=O)n(Cc3ccc(F)cc3)n2)cc1F . State its measured melting point.
A: 108 to 109 °C

Q: Provide measured melting point value, entry: COc1ccc(-c2cc(CN(C)C)c(=O)n(Cc3ccc(F)cc3)n2)cc1F
A: 127 to 129 °C

Q: State, in one line, measured melting point of CSc1ccc(-c2cc(CN3CCNCC3)c(=O)n(CC(C)C)n2)cc1.Cl.Cl
A: 248.5 to 253.7 °C (dec.)

Q: Answer with the recorded melting point of COc1ccc(-c2cc(CN(C)C)c(=O)n(CC(C)C)n2)cc1Cl.Cl only.
A: 213.6 to 214.3 °C

Q: Give the measured melting point for C#CCNCc1cc(-c2ccc(SC)cc2)nn(CC(C)C)c1=O.Cl
A: 197.5 to 198.4 °C

Q: Name the recorded melting point of the item COc1ccc(-c2cc(CN)c(=O)n(Cc3ccc(F)cc3)n2)cc1F in your answer.
A: 145 to 149 °C

Q: Give the value of melting point reported for the following: CC(C)Cn1nc(-c2ccc(F)c(F)c2)cc(CN2CCNCC2)c1=O.Cl.Cl
A: 182.5 to 186 °C

Q: State its melting point: Cc1cc(-c2cc(CN3CCN(C)CC3)c(=O)n(CC=Cc3ccccc3)n2)ccc1F.Cl.Cl
A: 236.1 to 237.1 °C

====

Parameter Solubility (%): see the listing below.
experiment: Water solubility test; format: physicochemical; conditions: purified water, from amount of water required for dissolution

| molecule | assay.readout | observed.value |
| --- | --- | --- |
| Cc1cc(-c2cc(CN(C)C)c(=O)n(CC(C)C)n2)ccc1F.Cl [Example 89] | Solubility (%) | >20% |
| CNC(=O)c1cc(-c2ccc(OC)c(F)c2)nn(CC2CC2)c1=O [compound 3, reference compound] | Solubility (%) | <0.001% |

Now let's try a different one.
Q: For COc1ccc(-c2cc(CN3CCNCC3)c(=O)n(CC3CC3)n2)cc1F.Cl.Cl [Example 21] , write its Solubility (%).
A: >20%

====

assay.readout: melting point

| molecule | observed.value |
| --- | --- |
| CN1CCN(Cc2cc(-c3ccc([S+](C)[O-])cc3)nn(CC3CC3)c2=O)CC1.Cl.Cl (stereo not drawn) | 80 °C (dec.) |
| CSc1ccc(-c2cc(CN(C)C)c(=O)n(CC3CC3)n2)cc1.Cl | 230.2 to 232.3 °C |
| Cc1ccc(-c2cc(CN3CCN(C)CC3)c(=O)n(CC(C)C)n2)cc1F.Cl.Cl | 248.5 to 252 °C (dec.) |
| CN(C)Cc1cc(-c2ccc(S(C)(=O)=O)cc2)nn(CC2CC2)c1=O.Cl | 239.5 to 240.7 °C |
| COc1ccc(-c2cc(CN(C)C)c(=O)n(Cc3ccc(F)c(F)c3)n2)cc1F | 129.9 to 130.4 °C |
| Cc1cc(-c2cc(CN3CCN(C)CC3)c(=O)n(Cc3ccc(Cl)cc3)n2)ccc1F.Cl.Cl | 246.4 to 249.7 °C (dec.) |

Q: Recall and state the measured melting point for CSc1ccc(-c2cc(CN3CCN(C)CC3)c(=O)n(CC(C)C)n2)cc1.Cl.Cl .
A: 242.6 to 243.7 °C

Q: Kindly indicate its recorded melting point. Item: CN1CCN(Cc2cc(-c3ccc(S(C)(=O)=O)cc3)nn(CC3CC3)c2=O)CC1.Cl.Cl
A: 209 to 211.4 °C

Q: Respond only with melting point recorded for CC(C)Cn1nc(-c2ccc(C(F)(F)F)cc2)cc(CN(C)C)c1=O.Cl
A: 242.2 to 242.3 °C

====

assay: Water solubility test; type: physicochemical; conditions: purified water, from amount of water required for dissolution
Entries annotated with measured Solubility (%)

Study these solved cases before continuing.
| compound | Solubility (%) |
| --- | --- |
| CSc1ccc(-c2cc(CN3CCN(C)CC3)c(=O)n(CC3CC3)n2)cc1.Cl.Cl [Example 149] | >10% |
| COc1ccc(-c2cc(C(=O)O)c(=O)n(C/C=C/c3ccc(Cl)cc3)n2)cc1 [compound 4, reference compound] | <0.001% |

Q: Name the recorded Solubility (%) of the item CCOC(=O)Nc1cc(-c2ccc(OC)cc2)nn(C/C=C/c2ccc(Cl)cc2)c1=O [compound 1, reference compound] in your answer.
A: <0.001%
